System: HepG2
Experiment: Cytotoxicity against Homo sapiens (human) HepG2 cells assessed as growth inhibition at 10 uM after 48 hr by SRB assay
Assay type: functional
Settings: HepG2, 48 h, read-out: GI
Label rule, in plain words: inhibition of growth at 10 µM of 30% and up is 1.0, under 30% is 0.0.

Task: Exam item: decide whether the reported inhibition of growth at 10 µM for O=C1C2C3c4ccccc4C(c4ccccc43)C2C(=O)N1Cc1ccncc1 (stereo not drawn) is at least 30%.
Output: 1.0

Task: Exam item: decide whether the reported inhibition of growth at 10 µM for O=C1C2C3c4ccccc4C(c4ccccc43)C2C(=O)N1CCN1CCCCC1 (stereo not drawn) is at least 30%.
Output: 1.0

Task: Exam item: decide whether the reported inhibition of growth at 10 µM for O=c1[nH]cc(F)c(=O)[nH]1 is at least 30%.
Output: 0.0

Task: Exam item: decide whether the reported inhibition of growth at 10 µM for O=P1(N(CCCl)CCCl)NCCCO1 (stereo not drawn) [CYCLOPHOSPHAMIDE ANHYDROUS] is at least 30%.
Output: 0.0

Task: Exam item: decide whether the reported inhibition of growth at 10 µM for CC(CN1C(=O)C2C3c4ccccc4C(c4ccccc43)C2C1=O)N1C(=O)C2C3c4ccccc4C(c4ccccc43)C2C1=O (stereo not drawn) is at least 30%.
Output: 1.0

Task: Exam item: decide whether the reported inhibition of growth at 10 µM for O=C1C2C3c4ccccc4C(c4ccccc43)C2C(=O)N1CCN1C(=O)C2C3c4ccccc4C(c4ccccc43)C2C1=O (stereo not drawn) is at least 30%.
Output: 0.0

Task: Exam item: decide whether the reported inhibition of growth at 10 µM for O=C1C2C3c4ccccc4C(c4ccccc43)C2C(=O)N1CN1CCOCC1 (stereo not drawn) is at least 30%.
Output: 1.0

Task: Exam item: decide whether the reported inhibition of growth at 10 µM for O=C1C2C3c4ccccc4C(c4ccccc43)C2C(=O)N1Nc1ccccn1 (stereo not drawn) is at least 30%.
Output: 1.0

Task: Exam item: decide whether the reported inhibition of growth at 10 µM for O=C1C2C3c4ccccc4C(c4ccccc43)C2C(=O)N1CCCN1CCN(CCCN2C(=O)C3C4c5ccccc5C(c5ccccc54)C3C2=O)CC1 (stereo not drawn) is at least 30%.
Output: 1.0

Task: Exam item: decide whether the reported inhibition of growth at 10 µM for O=C1C2C3c4ccccc4C(c4ccccc43)C2C(=O)N1Cc1ccccn1 (stereo not drawn) is at least 30%.
Output: 1.0

Task: Exam item: decide whether the reported inhibition of growth at 10 µM for C[C@@H]1C[C@@H]([C@H](O)CC2CC(=O)NC(=O)C2)C(=O)[C@@H](C)C1 [CYCLOHEXIMIDE] is at least 30%.
Output: 0.0

Task: Exam item: decide whether the reported inhibition of growth at 10 µM for CC1(C)CC(N2C(=O)C3C4c5ccccc5C(c5ccccc54)C3C2=O)CC(C)(C)N1 (stereo not drawn) is at least 30%.
Output: 1.0

Task: Exam item: decide whether the reported inhibition of growth at 10 µM for O=C1CCCN1CCN1C(=O)C2C3c4ccccc4C(c4ccccc43)C2C1=O (stereo not drawn) is at least 30%.
Output: 1.0

----------
Tested on: NCI-H522
Assay: Cytotoxicity against Homo sapiens (human) NCI-H522 cells assessed as growth inhibition at 10 uM after 48 hr by SRB assay
Type: functional
Conditions: NCI-H522, 48 h, read-out: GI
Assign inhibition of growth at 10 µM to each entry below.
Write down the numeric answer in % and omit the unit.

Task: Give the observed inhibition of growth at 10 µM of O=C1CCCN1CCN1C(=O)C2C3c4ccccc4C(c4ccccc43)C2C1=O (centres undefined) for NCI-H522.
Output: 15

Task: Give the observed inhibition of growth at 10 µM of O=P1(N(CCCl)CCCl)NCCCO1 (centres undefined) [CYCLOPHOSPHAMIDE ANHYDROUS] for NCI-H522.
Output: 9

Task: Give the observed inhibition of growth at 10 µM of O=C1C2C3c4ccccc4C(c4ccccc43)C2C(=O)N1Cc1ccco1 (centres undefined) for NCI-H522.
Output: 25

Task: Give the observed inhibition of growth at 10 µM of O=C1C2C3c4ccccc4C(c4ccccc43)C2C(=O)N1CN1CCOCC1 (centres undefined) for NCI-H522.
Output: 24

----------
Assign inhibition of growth at 10 µM to each entry below.
System: NCI-H522
Assay: Cytotoxicity against Homo sapiens (human) NCI-H522 cells assessed as growth inhibition at 10 uM after 48 hr by SRB assay
Assay type: functional
Details: NCI-H522, 48 h, read-out: GI
Write down the numeric answer in % and omit the unit.

Task: Answer with reported inhibition of growth at 10 µM of O=C1C2C3c4ccccc4C(c4ccccc43)C2C(=O)N1C1CC1 (centres undefined)
Output: 24

Task: Answer with reported inhibition of growth at 10 µM of O=C1C2C3c4ccccc4C(c4ccccc43)C2C(=O)N1CC1CCCO1 (centres undefined)
Output: 30

Task: Answer with reported inhibition of growth at 10 µM of O=c1[nH]cc(F)c(=O)[nH]1
Output: 18

Task: Answer with reported inhibition of growth at 10 µM of O=C1C2C3c4ccccc4C(c4ccccc43)C2C(=O)N1CCN1C(=O)C2C3c4ccccc4C(c4ccccc43)C2C1=O (centres undefined)
Output: 11

Task: Answer with reported inhibition of growth at 10 µM of O=C1C2C3c4ccccc4C(c4ccccc43)C2C(=O)N1CCCCN1C(=O)C2C3c4ccccc4C(c4ccccc43)C2C1=O (centres undefined)
Output: 23

Task: Answer with reported inhibition of growth at 10 µM of O=C1C2C3c4ccccc4C(c4ccccc43)C2C(=O)N1Cc1ccccn1 (centres undefined)
Output: 20

Task: Answer with reported inhibition of growth at 10 µM of O=C1C2C3c4ccccc4C(c4ccccc43)C2C(=O)N1CCN1CCCCC1 (centres undefined)
Output: 23

Task: Answer with reported inhibition of growth at 10 µM of O=C1C2C3c4ccccc4C(c4ccccc43)C2C(=O)N1CCCN1C(=O)C2C3c4ccccc4C(c4ccccc43)C2C1=O (centres undefined)
Output: 17

Task: Answer with reported inhibition of growth at 10 µM of O=C1C2C3c4ccccc4C(c4ccccc43)C2C(=O)N1CCN1CCCC1 (centres undefined)
Output: 13

Task: Answer with reported inhibition of growth at 10 µM of C[C@@H]1C[C@@H]([C@H](O)CC2CC(=O)NC(=O)C2)C(=O)[C@@H](C)C1 [CYCLOHEXIMIDE]
Output: 13

Task: Answer with reported inhibition of growth at 10 µM of O=C1C2C3c4ccccc4C(c4ccccc43)C2C(=O)N1Cc1ccncc1 (centres undefined)
Output: 27

Task: Answer with reported inhibition of growth at 10 µM of O=C1C2C3c4ccccc4C(c4ccccc43)C2C(=O)N1Nc1ccccc1 (centres undefined)
Output: 52

Task: Answer with reported inhibition of growth at 10 µM of O=C1C2C3c4ccccc4C(c4ccccc43)C2C(=O)N1CCCn1ccnc1 (centres undefined)
Output: 32

Task: Answer with reported inhibition of growth at 10 µM of CC(CN1C(=O)C2C3c4ccccc4C(c4ccccc43)C2C1=O)N1C(=O)C2C3c4ccccc4C(c4ccccc43)C2C1=O (centres undefined)
Output: 20

Task: Answer with reported inhibition of growth at 10 µM of O=C1C2C3c4ccccc4C(c4ccccc43)C2C(=O)N1CCCN1CCN(CCCN2C(=O)C3C4c5ccccc5C(c5ccccc54)C3C2=O)CC1 (centres undefined)
Output: 17

Task: Answer with reported inhibition of growth at 10 µM of O=C1C2C3c4ccccc4C(c4ccccc43)C2C(=O)N1Nc1ccccn1 (centres undefined)
Output: 27

Task: Answer with reported inhibition of growth at 10 µM of O=C1C2C3c4ccccc4C(c4ccccc43)C2C(=O)N1Cc1ccccc1 (centres undefined)
Output: 62

Task: Answer with reported inhibition of growth at 10 µM of O=C1C2C3c4ccccc4C(c4ccccc43)C2C(=O)N1CC1CCNCC1 (centres undefined)
Output: 25

Task: Answer with reported inhibition of growth at 10 µM of CC1(C)CC(N2C(=O)C3C4c5ccccc5C(c5ccccc54)C3C2=O)CC(C)(C)N1 (centres undefined)
Output: 15

----------
Tested on: Rattus norvegicus
Test: Anti-inflammatory activity against albino Charles Foster Rattus norvegicus (rat) assessed as inhibition of carrageenan-induced paw edema at 50 mg/kg, po administered 30 min prior to carrageenan injection measured after 1-3 hr by plethysmometer
Assay type: functional
Set-up: scale not given: the % may be the effect or the level left
value_type: Activity (%)
Write down the numeric answer in % and omit the unit.

Task: Give the observed Activity of O=C1C2C3c4ccccc4C(c4ccccc43)C2C(=O)N1Cc1ccccc1 (stereo not given) for Rattus norvegicus.
Output: 37

Task: Give the observed Activity of O=C1C2C3c4ccccc4C(c4ccccc43)C2C(=O)N1Cc1ccncc1 (stereo not given) for Rattus norvegicus.
Output: 37

Task: Give the observed Activity of CC(C)Cc1ccc(C(C)C(=O)O)cc1 (stereo not given) for Rattus norvegicus.
Output: 39

Task: Give the observed Activity of O=C1C2C3c4ccccc4C(c4ccccc43)C2C(=O)N1CCCn1ccnc1 (stereo not given) for Rattus norvegicus.
Output: 27

Task: Give the observed Activity of O=C1C2C3c4ccccc4C(c4ccccc43)C2C(=O)N1CCCCN1C(=O)C2C3c4ccccc4C(c4ccccc43)C2C1=O (stereo not given) for Rattus norvegicus.
Output: 25

Task: Give the observed Activity of O=C1C2C3c4ccccc4C(c4ccccc43)C2C(=O)N1C1CC1 (stereo not given) for Rattus norvegicus.
Output: 23

Task: Give the observed Activity of O=C1C2C3c4ccccc4C(c4ccccc43)C2C(=O)N1CCN1C(=O)C2C3c4ccccc4C(c4ccccc43)C2C1=O (stereo not given) for Rattus norvegicus.
Output: 20

Task: Give the observed Activity of O=C1C2C3c4ccccc4C(c4ccccc43)C2C(=O)N1CC1CCCO1 (stereo not given) for Rattus norvegicus.
Output: 34

Task: Give the observed Activity of O=C1C2C3c4ccccc4C(c4ccccc43)C2C(=O)N1Nc1ccccn1 (stereo not given) for Rattus norvegicus.
Output: 38

Task: Give the observed Activity of O=C1C2C3c4ccccc4C(c4ccccc43)C2C(=O)N1CCN1CCCC1 (stereo not given) for Rattus norvegicus.
Output: 28
